Molecular target: Alpha-1A adrenergic receptor (Homo sapiens, UniProt P35348); note: assay procedure not described here
Sequence (P35348 whole entry): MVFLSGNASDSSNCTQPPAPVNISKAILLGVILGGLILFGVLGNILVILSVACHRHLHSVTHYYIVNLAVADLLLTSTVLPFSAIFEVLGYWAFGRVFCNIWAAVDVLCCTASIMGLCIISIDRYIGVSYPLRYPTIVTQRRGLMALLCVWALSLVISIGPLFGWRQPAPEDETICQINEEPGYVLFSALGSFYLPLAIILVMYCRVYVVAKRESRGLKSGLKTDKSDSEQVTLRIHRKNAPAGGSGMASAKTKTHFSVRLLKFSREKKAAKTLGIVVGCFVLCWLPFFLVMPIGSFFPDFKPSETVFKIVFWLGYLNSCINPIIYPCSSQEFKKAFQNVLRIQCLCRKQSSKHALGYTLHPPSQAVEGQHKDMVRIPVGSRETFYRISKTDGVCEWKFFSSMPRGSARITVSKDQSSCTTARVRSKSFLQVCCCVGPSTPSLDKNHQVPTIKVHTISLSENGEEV
Assay type: functional, cell-based
# key: entry, value: AC50
QUANTITY: AC50 (µM)

>  <MOLECULE>
OC[C@H]1NC[C@H](O)[C@@H](O)[C@H]1O

>  <VALUE PREFIX>
>

>  <NUMBER>
30

$$$$
>  <MOLECULE>
Cc1ccc(O)c([C@H](CCN(C(C)C)C(C)C)c2ccccc2)c1 [TOLTERODINE]

>  <VALUE PREFIX>
=

>  <NUMBER>
24.7

$$$$
>  <MOLECULE>
C[C@@H](CN1CC(=O)NC(=O)C1)N1CC(=O)NC(=O)C1 [DEXRAZOXANE]

>  <VALUE PREFIX>
>

>  <NUMBER>
30

$$$$
>  <MOLECULE>
NC(=O)C1(N2CCCCC2)CCN(CCCC(=O)c2ccc(F)cc2)CC1 [PIPAMPERONE]

>  <VALUE PREFIX>
=

>  <NUMBER>
0.398

$$$$
>  <MOLECULE>
CC1(C)C[C@@H]1C(=O)N/C(=C\CCCCSC[C@H](N)C(=O)O)C(=O)O [CILASTATIN]

>  <VALUE PREFIX>
>

>  <NUMBER>
30

$$$$

###

Target: Voltage-dependent L-type calcium channel subunit alpha-1C (Rattus norvegicus, UniProt P22002); note: assay procedure not described here
Sequence (P22002 whole entry): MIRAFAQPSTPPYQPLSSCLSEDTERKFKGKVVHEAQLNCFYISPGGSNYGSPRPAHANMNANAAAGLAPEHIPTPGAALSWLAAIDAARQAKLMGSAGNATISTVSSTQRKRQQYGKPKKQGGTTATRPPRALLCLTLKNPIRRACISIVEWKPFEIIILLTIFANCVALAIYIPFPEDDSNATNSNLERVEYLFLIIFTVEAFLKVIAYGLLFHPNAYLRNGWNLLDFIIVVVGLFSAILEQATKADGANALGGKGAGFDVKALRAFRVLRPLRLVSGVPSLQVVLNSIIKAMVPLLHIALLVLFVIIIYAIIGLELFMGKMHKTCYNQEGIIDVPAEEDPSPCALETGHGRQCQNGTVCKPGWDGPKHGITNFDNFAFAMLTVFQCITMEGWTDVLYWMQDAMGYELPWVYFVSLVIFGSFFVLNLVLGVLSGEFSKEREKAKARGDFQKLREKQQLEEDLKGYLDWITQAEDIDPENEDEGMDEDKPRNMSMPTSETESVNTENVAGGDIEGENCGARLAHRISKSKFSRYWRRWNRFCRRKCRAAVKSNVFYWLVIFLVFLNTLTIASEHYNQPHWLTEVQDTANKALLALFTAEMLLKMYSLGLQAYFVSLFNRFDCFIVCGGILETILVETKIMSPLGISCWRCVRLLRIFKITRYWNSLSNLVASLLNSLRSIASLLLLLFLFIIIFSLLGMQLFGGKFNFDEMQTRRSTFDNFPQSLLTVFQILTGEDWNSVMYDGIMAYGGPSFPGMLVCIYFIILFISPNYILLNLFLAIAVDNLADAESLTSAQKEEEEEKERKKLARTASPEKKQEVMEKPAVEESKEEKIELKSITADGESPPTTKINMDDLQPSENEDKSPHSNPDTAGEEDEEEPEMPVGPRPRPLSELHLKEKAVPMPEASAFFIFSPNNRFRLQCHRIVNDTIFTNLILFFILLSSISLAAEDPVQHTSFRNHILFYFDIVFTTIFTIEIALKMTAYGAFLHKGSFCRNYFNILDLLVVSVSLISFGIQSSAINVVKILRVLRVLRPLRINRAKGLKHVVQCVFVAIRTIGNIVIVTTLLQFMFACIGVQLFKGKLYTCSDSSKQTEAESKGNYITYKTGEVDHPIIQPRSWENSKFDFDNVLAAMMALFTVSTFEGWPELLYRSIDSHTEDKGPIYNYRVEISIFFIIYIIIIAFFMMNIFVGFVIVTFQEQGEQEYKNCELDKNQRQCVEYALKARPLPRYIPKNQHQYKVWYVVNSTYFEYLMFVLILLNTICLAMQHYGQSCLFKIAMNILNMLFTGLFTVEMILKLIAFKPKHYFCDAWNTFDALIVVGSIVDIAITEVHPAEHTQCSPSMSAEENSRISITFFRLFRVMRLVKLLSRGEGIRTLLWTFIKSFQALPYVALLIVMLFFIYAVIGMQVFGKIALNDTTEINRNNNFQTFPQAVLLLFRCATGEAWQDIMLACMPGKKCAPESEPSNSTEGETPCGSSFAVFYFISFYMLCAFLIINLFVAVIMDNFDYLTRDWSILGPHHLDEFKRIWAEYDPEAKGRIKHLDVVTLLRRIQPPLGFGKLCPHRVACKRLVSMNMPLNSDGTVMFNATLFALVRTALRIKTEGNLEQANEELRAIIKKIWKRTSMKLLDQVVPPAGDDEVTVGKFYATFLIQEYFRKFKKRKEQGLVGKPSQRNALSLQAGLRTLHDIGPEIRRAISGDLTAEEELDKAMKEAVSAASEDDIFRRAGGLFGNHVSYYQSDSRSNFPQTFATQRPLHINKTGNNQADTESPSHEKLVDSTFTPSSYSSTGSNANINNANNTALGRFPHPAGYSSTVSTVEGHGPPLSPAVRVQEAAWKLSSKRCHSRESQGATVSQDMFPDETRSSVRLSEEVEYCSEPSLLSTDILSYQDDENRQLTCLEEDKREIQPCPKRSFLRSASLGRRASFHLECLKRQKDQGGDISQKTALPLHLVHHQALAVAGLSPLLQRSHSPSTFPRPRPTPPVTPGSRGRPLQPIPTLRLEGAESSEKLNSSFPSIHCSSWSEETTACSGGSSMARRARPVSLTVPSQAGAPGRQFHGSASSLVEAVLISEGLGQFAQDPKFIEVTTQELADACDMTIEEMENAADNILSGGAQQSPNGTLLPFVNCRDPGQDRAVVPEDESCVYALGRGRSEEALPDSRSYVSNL
Type: functional
QUANTITY: AC50

>  <COMPOUND>
Clc1ccc(COC(Cn2ccnc2)c2ccc(Cl)cc2Cl)c(Cl)c1 (centres undefined)

>  <RESULT>
> 10 µM

$$$$
>  <COMPOUND>
Oc1cc(O)c2c(c1)O[C@H](c1ccc(O)c(O)c1)[C@@H](O)C2

>  <RESULT>
> 10 µM

$$$$
>  <COMPOUND>
COC(=O)[C@H]1[C@H]2C[C@@H]3c4[nH]c5ccccc5c4CCN3C[C@H]2C[C@@H](OC(=O)c2cc(OC)c(OC)c(OC)c2)[C@@H]1OC

>  <RESULT>
> 10 µM

$$$$
>  <COMPOUND>
Cc1nnc2n1-c1ccc(Cl)cc1C(c1ccccc1)=NC2

>  <RESULT>
> 10 µM

$$$$
>  <COMPOUND>
CN(Cc1ccc(C(C)(C)C)cc1)Cc1cccc2ccccc12

>  <RESULT>
> 10 µM

$$$$
>  <COMPOUND>
Cc1cnc(Nc2ccc(OCCN3CCCC3)cc2)nc1Nc1cccc(S(=O)(=O)NC(C)(C)C)c1

>  <RESULT>
> 10 µM

$$$$
>  <COMPOUND>
OCCN(CCO)c1nc(N2CCCCC2)c2nc(N(CCO)CCO)nc(N3CCCCC3)c2n1

>  <RESULT>
> 30 µM

$$$$
>  <COMPOUND>
Nc1cc(N2CCCCC2)nc(N)[n+]1[O-]

>  <RESULT>
> 10 µM

$$$$
>  <COMPOUND>
COc1nc(C)nc(Cl)c1N=C1NCCN1

>  <RESULT>
> 30 µM

$$$$

###

Values of AC50 reported for UniProt Q01959 appear below.
Sequence (Q01959 whole entry): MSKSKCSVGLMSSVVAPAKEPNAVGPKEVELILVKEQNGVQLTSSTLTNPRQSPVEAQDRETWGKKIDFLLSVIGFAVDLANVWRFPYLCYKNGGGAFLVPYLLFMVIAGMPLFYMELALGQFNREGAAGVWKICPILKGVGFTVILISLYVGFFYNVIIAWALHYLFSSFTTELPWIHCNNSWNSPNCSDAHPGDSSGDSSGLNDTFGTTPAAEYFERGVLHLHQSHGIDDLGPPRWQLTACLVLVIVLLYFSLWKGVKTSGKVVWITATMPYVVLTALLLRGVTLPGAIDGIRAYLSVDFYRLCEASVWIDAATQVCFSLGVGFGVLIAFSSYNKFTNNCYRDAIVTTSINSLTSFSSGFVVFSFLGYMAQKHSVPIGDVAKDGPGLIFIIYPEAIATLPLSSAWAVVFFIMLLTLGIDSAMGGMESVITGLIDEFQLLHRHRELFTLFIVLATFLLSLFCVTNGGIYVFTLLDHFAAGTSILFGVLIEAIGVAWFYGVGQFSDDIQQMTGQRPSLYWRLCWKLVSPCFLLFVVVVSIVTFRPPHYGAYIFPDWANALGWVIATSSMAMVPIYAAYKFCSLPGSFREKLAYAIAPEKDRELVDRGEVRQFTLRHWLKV

>  <COMPOUND>
COc1cccc2c1C(=O)c1c(O)c3c(c(O)c1C2=O)C[C@@](O)(C(=O)CO)C[C@@H]3O[C@H]1C[C@H](N)[C@H](O)[C@H](C)O1 [DOXORUBICIN]

>  <SYSTEM UNDER TEST>
UniProt Q01959

>  <AC50>
> 30 µM

$$$$
>  <COMPOUND>
O=C(C[S+]([O-])Cc1ccco1)NC/C=C\COc1cc(CN2CCCCC2)ccn1 (stereo not drawn) [LAFUTIDINE]

>  <SYSTEM UNDER TEST>
UniProt Q01959

>  <AC50>
> 10 µM

$$$$
>  <COMPOUND>
N=C(N)NC(=O)c1nc(Cl)c(N)nc1N [AMILORIDE]

>  <SYSTEM UNDER TEST>
UniProt Q01959

>  <AC50>
> 30 µM

$$$$
>  <COMPOUND>
C[C@]12CCC(=O)C=C1[C@@H]1C[C@@H]1[C@H]1[C@@H]3[C@@H]4C[C@@H]4[C@@]4(CCC(=O)O4)[C@@]3(C)CC[C@@H]12 [DROSPIRENONE]

>  <SYSTEM UNDER TEST>
UniProt Q01959

>  <AC50>
> 30 µM

$$$$
>  <COMPOUND>
Cc1nnc2n1-c1ccc(Cl)cc1C(c1ccccc1)=NC2 [ALPRAZOLAM]

>  <SYSTEM UNDER TEST>
UniProt Q01959

>  <AC50>
> 10 µM

$$$$
>  <COMPOUND>
CC(C(=O)O)c1ccc(C(=O)c2ccccc2)s1 (stereo not drawn) [TIAPROFENIC ACID]

>  <SYSTEM UNDER TEST>
UniProt Q01959

>  <AC50>
> 10 µM

$$$$
>  <COMPOUND>
Cc1cnc(Nc2ccc(OCCN3CCCC3)cc2)nc1Nc1cccc(S(=O)(=O)NC(C)(C)C)c1 [FEDRATINIB]

>  <SYSTEM UNDER TEST>
UniProt Q01959

>  <AC50>
0.08 µM

$$$$
>  <COMPOUND>
CN(C)CCOC(c1ccc(Cl)cc1)c1ccccn1 (stereo not drawn) [CARBINOXAMINE]

>  <SYSTEM UNDER TEST>
UniProt Q01959

>  <AC50>
5.2 µM

$$$$
